Below, each entry is listed with its recorded DILI_severity_class.
Organism: Homo sapiens
Experiment: Liver toxicity in human assessed as induction of drug-induced liver injury by measuring severity class index
Could you keep your reply to the number by itself?

{"Molecule": "COc1cccc2c1C(=O)c1c(O)c3c(c(O)c1C2=O)C[C@@](O)(C(=O)CO)C[C@@H]3O[C@H]1C[C@H](N)[C@H](O)[C@H](C)O1", "Assay result": 3}

Q: Quick one: DILI_severity_class for C[C@@H](NCCCc1cccc(C(F)(F)F)c1)c1cccc2ccccc12 ?
A: 0

Q: Need DILI_severity_class, item CN(C)[C@@H]1C(O)=C(C(N)=O)C(=O)[C@@]2(O)C(O)=C3C(=O)c4c(O)cccc4[C@@](C)(O)[C@H]3C[C@@H]12
A: 2

---

Organism: Homo sapiens
Assay: Liver toxicity in human assessed as induction of drug-induced liver injury by measuring verified drug-induced liver injury concern status
Positions of bridges follow the written chain, without caps; N, C: chain ends. Non-standard residues stand in square brackets, D forms with d. Residues, ends and D or L forms follow the SMILES beside them. hArg = N=C(N)NCCCC[C@H](N)C(=O)O; Mpa = O=C(O)CCS
Observation type: DILI_Concern

{"Compound": "CC(c1cc2ccccc2s1)N(O)C(N)=O (stereo unspecified)", "DILI_Concern": "Most-Dili-Concern"}
{"Compound": "CC[C@@H](CO)NC(=O)[C@@H]1C=C2c3cccc4[nH]cc(c34)C[C@H]2N(C)C1", "DILI_Concern": "No-Dili-Concern"}
{"Compound": "CN1CCN(C2=Nc3cc(Cl)ccc3Nc3ccccc32)CC1", "DILI_Concern": "Most-Dili-Concern"}
{"Compound": "N=C(N)NCCCC[C@@H]1NC(=O)CCSSC[C@@H](C(N)=O)NC(=O)[C@@H]2CCCN2C(=O)[C@H](Cc2c[nH]c3ccccc23)NC(=O)[C@H](CC(=O)O)NC(=O)CNC1=O [EPTIFIBATIDE] ([Mpa][hArg]GDWPC-NH2; disulfide 1-7)", "DILI_Concern": "No-Dili-Concern"}
{"Compound": "Cn1cnc([N+](=O)[O-])c1Sc1ncnc2nc[nH]c12", "DILI_Concern": "Most-Dili-Concern"}

Turning now to a further record.
Q: Quick one: DILI_Concern for CNC1(C)C2CCC(C2)C1(C)C (stereo unspecified) ?
A: No-Dili-Concern

---

Species: Homo sapiens
Experiment: Liver toxicity in human assessed as induction of drug-induced liver injury by measuring severity class index
Observation type: DILI_severity_class
Write the value as a bare number.

{"Molecule": "COc1ccccc1OCCNCC(O)COc1cccc2[nH]c3ccccc3c12 (configuration not stated) [CARVEDILOL]", "DILI_severity_class": 3}
{"Molecule": "O=S(=O)(O)O[C@@H]1[C@@H](OS(=O)(=O)O)[C@H](O[C@@H]2CO[C@@H](O)[C@H](OS(=O)(=O)O)[C@H]2OS(=O)(=O)O)OC[C@H]1O", "DILI_severity_class": 3}
{"Molecule": "CC1OC2(CS1)CN1CCC2CC1 (configuration not stated) [CEVIMELINE]", "DILI_severity_class": 3}
{"Molecule": "CC(=O)S[C@@H]1CC2=CC(=O)CC[C@]2(C)[C@H]2CC[C@@]3(C)[C@@H](CC[C@@]34CCC(=O)O4)[C@H]12 [SPIRONOLACTONE]", "DILI_severity_class": 2}
{"Molecule": "C[N+](C)(C)CC(=O)O [BETAINE]", "DILI_severity_class": 0}
{"Molecule": "Cl.NCCNCCNCCN", "DILI_severity_class": 1}
{"Molecule": "CC1CNc2c(cccc2S(=O)(=O)N[C@@H](CCCNC(=N)N)C(=O)N2CC[C@@H](C)C[C@@H]2C(=O)O)C1 (some centres not stated) [ARGATROBAN]", "DILI_severity_class": 0}
{"Molecule": "OC[C@@H](O)[C@@H](O)[C@H](O)[C@H](O)CO [MANNITOL]", "DILI_severity_class": 0}
{"Molecule": "CCc1c2c(nc3ccc(OC(=O)N4CCC(N5CCCCC5)CC4)cc13)-c1cc3c(c(=O)n1C2)COC(=O)[C@]3(O)CC [IRINOTECAN]", "DILI_severity_class": 3}
{"Molecule": "CC1(C)S[C@@H]2[C@H](NC(=O)C(C(=O)O)c3ccccc3)C(=O)N2[C@H]1C(=O)O (some centres not stated) [CARBENICILLIN]", "DILI_severity_class": 3}

Q: Param item = CN1c2c(nc(N)[nH]c2=O)NC[C@@H]1CNc1ccc(C(=O)N[C@@H](CCC(=O)[O-])C(=O)[O-])cc1.[Ca+2] [LEVOMEFOLATE CALCIUM] ; retrieve measured DILI_severity_class.
A: 0

Q: Name the recorded DILI_severity_class for CCC(=O)O[C@@H](O[P@](=O)(CCCCc1ccccc1)CC(=O)N1C[C@H](C2CCCCC2)C[C@H]1C(=O)O)C(C)C [FOSINOPRIL] .
A: 3

Q: What value of DILI_severity_class has been reported for the following molecule? COc1cc2c(cc1OC)C1CC(=O)C(CC(C)C)CN1CC2 (configuration not stated) [TETRABENAZINE]
A: 3

Q: Tell me the measured DILI_severity_class of CC(N)Cc1ccccc1 (configuration not stated) [AMPHETAMINE] , please.
A: 0

Q: Recorded DILI_severity_class of OCC(S)CS (configuration not stated) [DIMERCAPROL] , please.
A: 0

Q: Report DILI_severity_class for O=C(O)c1cn(C2CC2)c2cc(N3CCNCC3)c(F)cc2c1=O [CIPROFLOXACIN] please.
A: 7

Q: Value lookup for DILI_severity_class; key = CC(=O)[C@@]1(O)CC[C@H]2[C@@H]3C=C(C)C4=CC(=O)CC[C@]4(C)[C@H]3CC[C@@]21C
A: 1
